# TARGET_OR_SYSTEM: hnRNPA2 1-189 (tandem RRMs) (UniProt P22626-2 1-189)
# Sequence (P22626 other isoform, or with tags, fused parts or gaps): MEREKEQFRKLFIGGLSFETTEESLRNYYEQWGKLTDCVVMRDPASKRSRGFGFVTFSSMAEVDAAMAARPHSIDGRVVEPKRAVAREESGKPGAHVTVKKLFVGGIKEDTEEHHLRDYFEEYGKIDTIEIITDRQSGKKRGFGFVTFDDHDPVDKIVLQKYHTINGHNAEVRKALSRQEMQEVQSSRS
# EXPERIMENT_DESCRIPTION: ITC; 7000 uM protein, 800 uM RNA; N 0.921; ITC: 20 mM NaPi pH 6.75, 150 mM NaCl, 25 C (also 20 mM KPi pH 6.75; 20 mM MES pH 6.7, 150 mM NaCl, 10 mM CaCl2); protein in syringe, RNA in cell
# ASSAY_CONDITIONS: protein: recombinant; tags: His tag removed by TEV; single strand
READOUT_NAME: Kd (µM)
Answer with a number only, understood to be in µM.

Task: Can you look up the measured Kd of GCCAAGGAGCC (ssRNA) [rA2RE11] for me?
Result: 139
